Target: human HDAC6 (Homo sapiens, UniProt Q9UBN7)
Sequence (Q9UBN7 whole entry): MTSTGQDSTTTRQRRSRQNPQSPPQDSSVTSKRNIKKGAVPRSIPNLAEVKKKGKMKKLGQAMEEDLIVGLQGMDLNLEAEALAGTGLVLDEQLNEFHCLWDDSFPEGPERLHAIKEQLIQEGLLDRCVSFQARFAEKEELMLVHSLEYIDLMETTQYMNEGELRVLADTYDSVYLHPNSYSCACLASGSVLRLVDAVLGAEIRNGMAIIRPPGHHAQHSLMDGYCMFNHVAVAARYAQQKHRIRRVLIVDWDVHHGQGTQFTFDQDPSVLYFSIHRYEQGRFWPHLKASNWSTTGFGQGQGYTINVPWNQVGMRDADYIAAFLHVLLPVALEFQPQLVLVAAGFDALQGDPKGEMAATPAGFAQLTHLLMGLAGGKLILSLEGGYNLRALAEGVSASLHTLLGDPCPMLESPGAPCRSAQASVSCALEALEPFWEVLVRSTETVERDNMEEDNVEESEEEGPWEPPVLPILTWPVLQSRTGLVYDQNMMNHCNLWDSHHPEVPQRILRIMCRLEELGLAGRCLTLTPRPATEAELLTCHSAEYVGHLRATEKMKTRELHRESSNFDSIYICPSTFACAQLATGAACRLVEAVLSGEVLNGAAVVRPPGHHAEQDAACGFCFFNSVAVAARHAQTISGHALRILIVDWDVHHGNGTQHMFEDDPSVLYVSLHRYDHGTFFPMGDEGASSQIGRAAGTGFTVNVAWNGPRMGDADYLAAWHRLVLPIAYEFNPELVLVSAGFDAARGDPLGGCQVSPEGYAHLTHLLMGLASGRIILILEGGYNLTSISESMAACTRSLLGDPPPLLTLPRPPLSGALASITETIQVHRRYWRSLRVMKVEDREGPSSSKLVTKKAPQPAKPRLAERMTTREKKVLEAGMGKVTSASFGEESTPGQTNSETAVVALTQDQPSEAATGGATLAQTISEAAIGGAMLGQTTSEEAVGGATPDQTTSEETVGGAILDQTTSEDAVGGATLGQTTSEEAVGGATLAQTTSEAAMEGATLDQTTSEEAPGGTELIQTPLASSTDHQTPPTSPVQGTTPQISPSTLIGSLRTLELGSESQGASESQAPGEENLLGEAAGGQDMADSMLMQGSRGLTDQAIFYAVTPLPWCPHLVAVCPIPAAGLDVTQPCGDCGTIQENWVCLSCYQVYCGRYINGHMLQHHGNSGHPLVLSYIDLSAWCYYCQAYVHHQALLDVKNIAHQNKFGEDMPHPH
pIC50: −log10 of the molar value.
readout: pIC50

- compound: "CN1C(=O)C2c3c(c4ccccc4n3Cc3ccc(C(=O)NO)cc3)CCN2C1=O (centres unmarked)"
  measured: 7.51

A = CN1C(=O)[C@@H]2CN(Cc3c2c2cc(OCCN4CCOCC4)ccc2n3Cc2ccc(C(=O)NO)cc2)C1=O [(S)-21]
B = CN1C(=O)[C@H]2CN(Cc3c2c2cc(OCCN4CCOCC4)ccc2n3Cc2ccc(C(=O)NO)cc2)C1=O [(R)-21]
Pick the one with the larger pIC50: A vs B Identify your selection by its label.
A

I = CN1CC(=O)N2CCc3c(c4ccccc4n3Cc3ccc(C(=O)NO)cc3)C2C1=O (centres unmarked) [Compound 31b]
II = CN1C(=O)C2c3c(n(Cc4ccc(C(=O)NO)cc4)c4ccccc34)CCN2C1=O (centres unmarked) [Compound 31a]
Pick the one with the larger pIC50: I vs II Identify your selection by its label.
II

----------
Assay: Solubility in H2O
Type: physicochemical
Settings: water
readout: solubility

Form field solubility, entry CN1C(=O)C2CN(Cc3c2c2ccccc2n3Cc2ccc(C(=O)NO)cc2)C1=O (stereo not shown) : < 1000 µg/mL

----------
Molecular target: human HDAC2 (Homo sapiens, UniProt Q92769)
Construct: purchased Reaction Biology Corporation HDAC2
Sequence (Q92769 whole entry): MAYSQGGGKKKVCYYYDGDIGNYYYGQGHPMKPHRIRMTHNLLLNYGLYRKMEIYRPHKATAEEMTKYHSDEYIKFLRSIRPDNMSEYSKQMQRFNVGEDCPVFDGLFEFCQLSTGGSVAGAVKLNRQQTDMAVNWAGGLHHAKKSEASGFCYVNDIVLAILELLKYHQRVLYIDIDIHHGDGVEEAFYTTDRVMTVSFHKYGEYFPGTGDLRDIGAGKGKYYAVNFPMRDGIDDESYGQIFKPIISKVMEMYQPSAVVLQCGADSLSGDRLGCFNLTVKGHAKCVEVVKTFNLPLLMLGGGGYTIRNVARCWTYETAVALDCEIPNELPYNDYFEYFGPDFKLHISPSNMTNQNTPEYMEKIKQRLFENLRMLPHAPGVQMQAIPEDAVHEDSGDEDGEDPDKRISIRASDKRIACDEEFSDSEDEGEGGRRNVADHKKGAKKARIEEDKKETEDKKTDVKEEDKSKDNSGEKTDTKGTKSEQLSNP
Assay: Fluorescence HDAC enzyme inhibition assay (Reaction Biology Corporation)
Format: biochemical
pIC50: −log10 of the molar value.
readout: pIC50

A = CN1C(=O)[C@@H]2CN(Cc3c2c2cc(OCCN4CCOCC4)ccc2n3Cc2ccc(C(=O)NO)cc2)C1=O [(S)-21]
B = CN1C(=O)[C@H]2CN(Cc3c2c2cc(OCCN4CCOCC4)ccc2n3Cc2ccc(C(=O)NO)cc2)C1=O [(R)-21]
// which entry reports the smaller pIC50, A or B ? Identify your selection by its label.
B

Source listed as patent US11198694B2.
